Molecular target: HLA-A2402 (Homo sapiens, UniProt P04439, D101N/D140Y/D185E/E176V/E190D/F33S/G103R/G107R/I119L/I121M/I306V/K335N/L105A/L180Q/L300P/N151K/N90K/Q86E/Q94H/R106L/R138H/R89G/T104I/T345S/V100E/W191G/Y123F)
Test: cell-based
Type: binding
Residues, ends and D or L forms follow the SMILES beside them.
measured_attribute: IC50

molecule="CC(C)C[C@H](NC(=O)[C@H](Cc1ccc(O)cc1)NC(=O)[C@H](CCCCN)NC(=O)[C@@H](NC(=O)[C@@H](NC(=O)[C@H](CCCCN)NC(=O)[C@@H]1CCCN1C(=O)[C@H](Cc1ccc(O)cc1)NC(=O)[C@@H](N)Cc1ccccc1)C(C)C)[C@@H](C)O)C(=O)O [Epitope P25] (H-FYPKVTKYL-OH; N-terminus and C-terminus assumed)" value="< 5 µM"
molecule="CC[C@H](C)[C@H](N)C(=O)N[C@@H](CC(C)C)C(=O)N[C@@H](CS)C(=O)N[C@@H](Cc1c[nH]c2ccccc12)C(=O)NCC(=O)N[C@@H](CCC(=O)O)C(=O)N[C@@H](CC(C)C)C(=O)N[C@@H](CCSC)C(=O)N[C@@H](CC(N)=O)C(=O)N[C@@H](CC(C)C)C(=O)O [Epitope P74] (H-ILCWGELMNL-OH; N-terminus and C-terminus assumed)" value="> 15 µM"
molecule="CC[C@H](C)[C@H](NC(=O)[C@H](CC(C)C)NC(=O)[C@@H](N)CCCCN)C(=O)NCC(=O)N[C@H](C(=O)N[C@@H](CC(=O)O)C(=O)N[C@@H](CC(N)=O)C(=O)N[C@@H](CO)C(=O)N[C@H](C(=O)O)C(C)C)[C@@H](C)O [Epitope P34] (H-KLIGTDNSV-OH; N-terminus and C-terminus assumed)" value="> 15 µM"
molecule="CC(C)C[C@H](N)C(=O)N[C@@H](Cc1ccc(O)cc1)C(=O)N[C@@H](CO)C(=O)N[C@@H](CO)C(=O)N[C@H](C(=O)N[C@H](C(=O)N1CCC[C@H]1C(=O)N[C@H](C(=O)N[C@@H](Cc1ccccc1)C(=O)O)C(C)C)C(C)C)[C@@H](C)O [Epitope P56] (H-LYSSTVPVF-OH; N-terminus and C-terminus assumed)" value="< 5 µM"

====

Target: HLA-A0201 (Homo sapiens, UniProt P04439, D140Y/D185E/D98H/E176V/E277Q/G131W/G231S/I119V/I121R/I166T/I218V/L300P/L318F/N151K/N90K/P208A/P217A/Q86G/Q94H/R138H/R169H/T345S)
Construct: expressed in transfected cells; host or cells: HMy2.CIR
Assay: cell-based
Type: binding
Details: HLA-A0201 HMy2.CIR cells; competitor peptide 15μM; 24 hours; flow cytometry; read-out: 15μM Inhibition (%)
Residues, ends and D or L forms follow the SMILES beside them.
Outcome label depends on inhibition at 15 µM relative to 10%: at/above gives YES, below gives NO.

compound="CSCC[C@H](NC(=O)[C@H](Cc1c[nH]c2ccccc12)NC(=O)[C@H](CCCNC(=N)N)NC(=O)[C@H](Cc1ccc(O)cc1)NC(=O)CNC(=O)[C@@H]1CCCN1C(=O)[C@@H](N)CS)C(=O)N[C@@H](CS)C(=O)N[C@@H](CC(C)C)C(=O)N[C@@H](CCCNC(=N)N)C(=O)O [Epitope P77] (H-CPGYRWMCLR-OH; N-terminus and C-terminus assumed)" assigned_class=NO
compound="CC(C)C[C@H](NC(=O)[C@@H](N)Cc1ccccc1)C(=O)N1CCC[C@H]1C(=O)N[C@@H](CO)C(=O)N[C@@H](CC(=O)O)C(=O)N[C@@H](Cc1ccccc1)C(=O)N[C@@H](Cc1ccccc1)C(=O)N1CCC[C@H]1C(=O)N[C@@H](CO)C(=O)O [Epitope P67] (H-FLPSDFFPS-OH; N-terminus and C-terminus assumed)" assigned_class=YES
compound="CC(C)C[C@H](NC(=O)[C@H](CCC(=O)O)NC(=O)[C@H](CCCNC(=N)N)NC(=O)[C@H](CO)NC(=O)[C@H](C)N)C(=O)N[C@H](C(=O)N[C@H](C(=O)N[C@@H](CO)C(=O)N[C@@H](Cc1ccc(O)cc1)C(=O)O)C(C)C)C(C)C [Epitope P88] (H-ASRELVVSY-OH; N-terminus and C-terminus assumed)" assigned_class=YES
compound="CC(C)C[C@H](NC(=O)[C@@H](N)Cc1ccccc1)C(=O)N[C@@H](Cc1c[nH]c2ccccc12)C(=O)N[C@@H](CCC(=O)O)C(=O)N[C@@H](Cc1c[nH]c2ccccc12)C(=O)N[C@@H](C)C(=O)N[C@@H](CO)C(=O)N[C@H](C(=O)N[C@@H](CCCNC(=N)N)C(=O)O)C(C)C [Epitope P78] (H-FLWEWASVR-OH; N-terminus and C-terminus assumed)" assigned_class=YES
compound="CC[C@H](C)[C@H](NC(=O)[C@H](Cc1c[nH]cn1)NC(=O)[C@H](Cc1ccccc1)NC(=O)[C@@H](N)Cc1c[nH]c2ccccc12)C(=O)N[C@@H](CO)C(=O)N[C@@H](CS)C(=O)N[C@@H](CC(C)C)C(=O)N[C@H](C(=O)N[C@@H](Cc1ccccc1)C(=O)O)[C@@H](C)O [Epitope P52]" assigned_class=NO
compound="CC(C)C[C@H](NC(=O)CN)C(=O)N[C@@H](CO)C(=O)N1CCC[C@H]1C(=O)N[C@H](C(=O)N[C@H](C(=O)N[C@@H](Cc1c[nH]c2ccccc12)C(=O)N[C@@H](CC(C)C)C(=O)N[C@@H](CO)C(=O)N[C@H](C(=O)O)C(C)C)C(C)C)[C@@H](C)O [Epitope P8]" assigned_class=YES
compound="CC[C@H](C)[C@H](N)C(=O)N[C@@H](CC(C)C)C(=O)N[C@@H](CS)C(=O)N[C@@H](Cc1c[nH]c2ccccc12)C(=O)NCC(=O)N[C@@H](CCC(=O)O)C(=O)N[C@@H](CC(C)C)C(=O)N[C@@H](CCSC)C(=O)N[C@@H](CC(N)=O)C(=O)N[C@@H](CC(C)C)C(=O)O [Epitope P74] (H-ILCWGELMNL-OH; N-terminus and C-terminus assumed)" assigned_class=YES
compound="CC(C)C[C@H](NC(=O)[C@H](CC(N)=O)NC(=O)CNC(=O)[C@H](Cc1c[nH]cn1)NC(=O)[C@H](C)NC(=O)[C@H](CC(N)=O)NC(=O)[C@@H](NC(=O)[C@@H](N)[C@@H](C)O)C(C)C)C(=O)N1CCC[C@H]1C(=O)N[C@@H](CCCCN)C(=O)O [Epitope P47] (H-TVNAHGNLPK-OH; N-terminus and C-terminus assumed)" assigned_class=YES
compound="CC(C)C[C@H](NC(=O)[C@H](Cc1ccc(O)cc1)NC(=O)[C@H](CCC(=O)O)NC(=O)[C@H](CC(C)C)NC(=O)[C@@H](NC(=O)[C@@H](NC(=O)[C@@H](N)CCC(=O)O)[C@@H](C)O)C(C)C)C(=O)N[C@H](C(=O)N[C@@H](CO)C(=O)N[C@H](C(=O)O)C(C)C)C(C)C [Epitope P118] (H-ETVLEYLVSV-OH; N-terminus and C-terminus assumed)" assigned_class=YES
compound="CC[C@H](C)[C@H](NC(=O)[C@H](CO)NC(=O)[C@@H]1CCCN1C(=O)[C@H](Cc1ccccc1)NC(=O)[C@H](Cc1ccccc1)NC(=O)[C@H](CC(=O)O)NC(=O)[C@H](CO)NC(=O)[C@@H]1CCCN1C(=O)[C@H](CC(C)C)NC(=O)[C@@H](N)Cc1ccccc1)C(=O)O [Epitope P31]" assigned_class=YES
compound="CC[C@H](C)[C@H](NC(=O)[C@H](Cc1c[nH]cn1)NC(=O)[C@H](Cc1ccccc1)NC(=O)[C@H](Cc1c[nH]c2ccccc12)NC(=O)[C@H](CC(C)C)NC(=O)[C@@H](N)CC(C)C)C(=O)N[C@@H](CO)C(=O)N[C@@H](CS)C(=O)N[C@@H](CC(C)C)C(=O)O [Epitope P32]" assigned_class=NO
compound="CC[C@H](C)[C@H](NC(=O)[C@H](Cc1c[nH]c2ccccc12)NC(=O)[C@@H](NC(=O)CNC(=O)[C@H](Cc1ccccc1)NC(=O)[C@H](CO)NC(=O)[C@@H](NC(=O)[C@H](CC(C)C)NC(=O)[C@@H](N)Cc1ccc(O)cc1)C(C)C)C(C)C)C(=O)O [Epitope P11]" assigned_class=YES

====

Target: HLA-A1101 (Homo sapiens, UniProt P04439, A114D/D185E/E176A/F33Y/L180Q/S129P/T187R)
Construct: expressed in transfected cells; host or cells: HMy2.CIR
Test: cell-based
Format: binding
Conditions: HLA-A1101 HMy2.CIR cells; competitor peptide 15μM; 24 hours; flow cytometry; read-out: 15μM Inhibition (%)
Residues, ends and D or L forms follow the SMILES beside them.
# inhibition at 15 µM annotations
measured_attribute: inhibition at 15 µM (%)

molecule="CC[C@H](C)[C@H](NC(=O)[C@H](CC(C)C)NC(=O)[C@H](CS)NC(=O)[C@H](CC(C)C)NC(=O)[C@H](CC(C)C)NC(=O)[C@H](CC(C)C)NC(=O)[C@@H](NC(=O)[C@H](Cc1ccccc1)NC(=O)[C@@H](N)CC(C)C)[C@@H](C)CC)C(=O)O [Epitope P20] (H-LFILLLCLI-OH; N-terminus and C-terminus assumed)" unit_info=% value=4.48
molecule="CC[C@H](C)[C@H](NC(=O)[C@H](CO)NC(=O)[C@H](Cc1ccc(O)cc1)NC(=O)[C@@H](N)CC(C)C)C(=O)N[C@@H](CC(C)C)C(=O)N[C@@H](CO)C(=O)N1CCC[C@H]1C(=O)N[C@@H](Cc1ccccc1)C(=O)N[C@@H](CC(C)C)C(=O)O [Epitope P19] (H-LYSILSPFL-OH; N-terminus and C-terminus assumed)" unit_info=% value=16.2
molecule="CC(C)C[C@H](NC(=O)[C@H](CO)NC(=O)[C@H](Cc1ccccc1)NC(=O)[C@H](Cc1ccccc1)NC(=O)CNC(=O)[C@H](C)NC(=O)[C@@H](N)CCC(N)=O)C(=O)N[C@H](C(=O)N[C@@H](CCCCN)C(=O)O)[C@@H](C)O [Epitope P40] (H-QAGFFSLTK-OH; N-terminus and C-terminus assumed)" unit_info=% value=92.8

Just for reference, paper PMC9021956 is where these values come from.
